Tested on: OVCAR-8 ovarian
Assay procedure: NCI-60 one-dose screen, 48 h
Condition parameters: 10 µM unless noted
About 83,000 compounds went through this panel and 20% of them were active in at least one assay; those are over-represented in the sample as a whole. Calls of active or inactive are those of the source. The calls were made as follows: active = growth percent below 10; inactive = the rest.
Possible outcomes: class 1 for active, class 0 for inactive

Compound: CC/C=C\C[C@H](F)C/C=C1/C(=O)C=C[C@@H]1C/C=C\CCCC(=O)O
Group: class 0

Compound: CCCCOc1ccc(NC(=O)n2nc(NC(C)=O)c3cc(NC(C)=O)ccc32)cc1
Group: class 0

Compound: COc1c(Cl)cc(Cl)cc1Cl
Group: class 0

Compound: C=C1CCC2C3(C)COC(c4ccc(OC)cc4Br)OC3CCC2(C)C1/C=C/C1=CCOC1=O (centres undefined)
Group: class 0

Compound: CCN(CC)CC(C)Nc1ccc([N+](=O)[O-])c2sc3ccccc3c(=O)c12 (centres undefined)
Group: class 0

Compound: COc1cc(-c2c3c(nc4c2c(C)nn4-c2ccccc2)-c2ccccc2C(=O)C3=O)cc(OC)c1OC
Group: class 0

Compound: CCOC(=O)c1c2c(n3ccc(NC(=O)CCN4CCCCC4)cc13)C(=O)c1ncccc1C2=O
Group: class 1

Compound: CCOC(=O)c1ccc2c(c1)nc(/C=C/c1ccc(Cl)cc1)n2-c1cc(C(C)(C)C)[nH]n1
Group: class 0

Compound: COc1ccc(S(=O)(=O)NCCNc2nccc(-c3c(-c4cccc([N+](=O)[O-])c4)nc4sccn34)n2)cc1
Group: class 0

Compound: CN1CCN(Cc2ccc(NC(=O)c3cncc(C#Cc4c(N)ncc5ccc(C#N)cc45)c3)cc2C(F)(F)F)CC1
Group: class 1

Compound: CN1CCN(Cc2ccc(NC(=O)c3cncc(C#Cc4cnc(N)c5cccnc45)c3)cc2C(F)(F)F)CC1
Group: class 0

Compound: Oc1ccccc1/C=N/Nc1ccc2ccccc2n1
Group: class 0

Compound: Brc1cccc(-c2nc(-c3ccc4c(c3)OCCO4)co2)c1
Group: class 0

Compound: CCN(CC)c1ccc(CNc2cc(C)nc3ccc(OC)cc23)cc1
Group: class 0

Compound: COc1ccc(-c2nn(-c3ccccc3)cc2/C=C/C(=O)OCc2cn(-c3ccc(F)c(Cl)c3)nn2)cc1
Group: class 0

Compound: CC(=O)OC1Oc2cc(C)c(C)cc2-c2oc(=O)c(-c3cc4ccc(N(C)C)cc4oc3=O)cc21 (centres undefined)
Group: class 0

Compound: NS(=O)(=O)N(c1cc(C(F)(F)F)cc(C(F)(F)F)c1)C1CCN(Cc2ccc(F)cc2)CC1
Group: class 0

Compound: O=C1c2cc3c(cc2-c2c1c1cc(F)c(F)cc1c(=O)n2C[C@H](O)CO)OCO3
Group: class 1

Compound: Cn1cc(-c2csc(-c3cn(C)c4ncccc34)n2)c2ccccc21
Group: class 0

###

System: MDA-MB-435 melanoma
Assay procedure: NCI-60 one-dose screen, 48 h (100 = growth as untreated, 0 = no growth, -100 = all killed)
Condition parameters: 10 µM unless noted
About 83,000 compounds went through this panel and 20% of them were active in at least one assay; those are over-represented in the sample as a whole.
If the reported growth equals or exceeds 80%, assign MET. If not, assign NOT MET.

Compound: C#Cc1nc2ccccc2c(=O)[nH]1
Group: NOT MET
//
Compound: COc1cc(OC)c(/C=C/S(=O)(=O)Cc2cnc(OC)c(N)c2)c(OC)c1
Group: NOT MET
//
Compound: COc1cc2c(=O)n(CC3CCCCC3)c3c4cc[nH]c4ncc3c2cc1OC
Group: NOT MET
//
Compound: O=[N+]([O-])c1cccc(-c2nc3sccn3c2-c2ccnc(NCCCNS(=O)(=O)c3ccc(Br)cc3)n2)c1
Group: NOT MET
//
Compound: O=[N+]([O-])c1cccc(C2CC(c3ccccc3)=Nc3ccccc3S2)c1 (configuration not stated)
Group: MET
//
Compound: Nc1cc2ccncc2c2ccccc12
Group: NOT MET
//
Compound: CCCCNC(=O)NS(=O)(=O)c1ccc(N2N=C(c3cc(C)ccc3C)CC2c2cc(OC)c(OC)c(OC)c2)cc1 (configuration not stated)
Group: NOT MET
//
Compound: O=C1/C(=C/c2ccc(Cl)c(Cl)c2)CN(C(=O)CCN2CCC(=NO)CC2)C/C1=C\c1ccc(Cl)c(Cl)c1
Group: NOT MET
//
Compound: CCCCCC(=O)N(CCCC)CCCC
Group: MET
//
Compound: CN[C@@]12CC3(C=CC(=O)C=C3)O[C@]1(Cc1ccc(OC)cc1)N(C)C(=O)N2
Group: NOT MET
//
Compound: CCCCCCCCCCCCNC(=O)[C@H]1CSC(c2ccc(OC)c(F)c2)N1 (some centres not stated)
Group: NOT MET
//
Compound: Nc1cc(O)cc2cccnc12
Group: NOT MET
//
Compound: CN(C)c1ccc(/C=C(\C#N)c2nc3ccccc3s2)cc1
Group: MET
//
Compound: O=C1C=CC(=O)N1c1ccc(Cc2ccc(N3C(=O)C=CC3=O)cc2)cc1
Group: MET
//
Compound: c1c2c(cc3c1OCO3)Cc1cc3c(cc1Cc1cc4c(cc1C2)OCO4)OCO3
Group: MET
//
Compound: CC(=O)Oc1cc2cnc3c4cc(OC(C)=O)c(OC(C)=O)cc4ccc3c2cc1OC(C)=O
Group: NOT MET
//
Compound: Nc1ccc2c(c1)C(=O)NC2=O
Group: MET
//
Compound: COc1ccc(C(=O)/C=C/c2cc3ccccc3[nH]c2=O)cc1
Group: NOT MET
//
Compound: CN1/C(=C\C=C\C2=[N+](C)c3ccccc3C2(C)C)C(C)(C)c2ccccc21
Group: NOT MET
//
Compound: COc1cc(C2CC(=O)Nc3c2c(C)nn3-c2nc3ccccc3[nH]2)cc(OC)c1OC (configuration not stated)
Group: MET
//
Compound: COc1cccc(-c2cn3c(ccc4ccccc43)n2)c1
Group: NOT MET

###

System: NCI/ADR-RES ovarian
Assay procedure: NCI-60 one-dose screen, 48 h (100 = growth as untreated, 0 = no growth, -100 = all killed)
Condition parameters: 10 µM unless noted
Method: Growth inhibition of the NCI/ADR-RES human […] tumor cell line is measured as a screen for anti-cancer activity. Cells are grown in 96 well plates and exposed to the test compound for 48 hours. Compounds are tested at a single concentration, which is 10^-5 M for most compounds. The reported endpoint is percent growth (GI% or GIPRCNT), where numbers from 0 - 100% represent growth inhibition, and numbers from -100% - 0 represent cell death. For example, a value of 40 represents 60% growth inhibition. […]
The panel holds about 83,000 compounds, 20% with a hit somewhere; the sample as a whole holds those more often.

Molecule: COC(=S)SCN(CSC(=S)OC)c1ccc(Cl)cc1
Units symbol: %
growth: 79.1
--
Molecule: COc1ccc(Cl)cc1Nc1nc(C(F)(F)F)ccc1C(=O)N/N=C/c1cccnc1
Units symbol: %
growth: 41.8
--
Molecule: COc1ccc(CCN2CC=Cn3c2nc2ccccc2c3=O)cc1
Units symbol: %
growth: 15
--
Molecule: CC(=O)Nc1ccc2c(c1)c(NC(C)=O)nn2C(=O)Nc1ccc(Cc2ccccc2)cc1
Units symbol: %
growth: 89.4
--
Molecule: NC(N)=Nc1ccc(S(=O)(=O)O)cc1
Units symbol: %
growth: 93.6
--
Molecule: O=[N+]([O-])c1cccc(-c2nc3sccn3c2-c2ccnc(NCCCNS(=O)(=O)c3ccc(Br)cc3)n2)c1
Units symbol: %
growth: 23.1
--
Molecule: CC[C@H](Nc1ncnc(N)c1C(N)=O)c1nc2cccc(NCc3ccc(C(=O)NO)cc3)c2c(=O)n1-c1ccccc1
Units symbol: %
growth: 106
--
Molecule: CNCCCn1c2c(c3ccc([N+](=O)[O-])cc3c1=O)C(=O)c1cc(OC)cnc1-2
Units symbol: %
growth: -28.8
--
Molecule: O=C1c2cccnc2C(=O)c2c1c(C(=O)OCCN1CCCCC1)c1ccccn21
Units symbol: %
growth: -25.5
--
Molecule: O=C(Nc1ccc(CN2CCOCC2)cc1)c1[nH]ncc1Nc1ncnc2sccc12
Units symbol: %
growth: 4.5
--
Molecule: O=C1C(=O)N(CCCCn2cc(CO)nn2)c2ccccc21
Units symbol: %
growth: 100
--
Molecule: CN(CC(=O)N(Cc1ccc(C2CCCCC2)cc1)c1ccc(C(=O)NO)cc1)S(=O)(=O)c1c(F)c(F)c(F)c(F)c1F
Units symbol: %
growth: 90.2
--
Molecule: c1ccc2sc(SCCCn3ccnc3)nc2c1
Units symbol: %
growth: 94.2
--
Molecule: CC(=O)O[C@H]1CC[C@]2(C)[C@H]3CC[C@@H]4[C@H]5[C@H](C(C)C)CC[C@]5(C(=O)OCC(CO)(CO)N=C(N)N)CC[C@@]4(C)[C@]3(C)CC[C@H]2C1(C)C
Units symbol: %
growth: 76.8
--
Molecule: COc1cccc(-c2nc3sccn3c2-c2ccnc(NCCCNS(=O)(=O)c3ccc(Cl)cc3)c2)c1
Units symbol: %
growth: 26.9
--
Molecule: CN1/C(=C\C=C\C2=[N+](C)c3ccccc3C2(C)C)C(C)(C)c2ccccc21
Units symbol: %
growth: 14.3
--
Molecule: OC(c1cccc(C(F)(F)F)c1)c1cnccc1NC1CCCCCC1 (centres undefined)
Units symbol: %
growth: 39.2
--
Molecule: CCC(C)[C@@H]1NC(=O)[C@@H]2CCCN2C(=O)[C@H](Cc2ccccc2)NC(=O)[C@@H]2CCCN2C(=O)[C@H](Cc2ccccc2)NC(=O)[C@@H]2CCCN2C(=O)[C@H](Cc2ccccc2)NC1=O (some centres undefined)
Units symbol: %
growth: 112
--
Molecule: Cc1ccc2c(NCCCN(C)C)c3c(C)nn(C)c3nc2c1
Units symbol: %
growth: 45.3
